Measured values drawn from PubChem BioAssay AID179 for this set.

# IC50 per record follows
test system: CEM cells HIV-1 protection, formazan growth assay; test: NCI AIDS Antiviral Assay; conditions: measured here: growth of uninfected CEM cells

Ask | For the molecule CC1=NN(C(=O)c2ccc(Cl)cc2)C(=O)/C1=C/c1ccc(Cl)cc1 , what IC50 is on record?
Reply | > 10.5 µM

Ask | Now consider CC(C)=C1CC(C)(C)N=C1CCN1CCOCC1 and answer again.
Reply | 2.95 µM

Ask | Do the same for CC(=O)OCC1OC(Nn2c(=O)[nH]c3ccccc3c2=O)C(OC(C)=O)C(OC(C)=O)C1OC(C)=O (configuration not stated) please
Reply | 117 µM

Ask | Now the molecule COc1ccc2c(=O)c(-c3ccc4c(c3)OCO4)c(C)oc2c1
Reply | 42.7 µM

Ask | Query CCN1C(=O)C(C)C=C(C)C=C1C (configuration not stated) next
Reply | > 724 µM

Ask | And for O=S(=O)(Nc1nnc2ccc3ccccc3n12)c1ccc(F)cc1S ?
Reply | 110 µM

Ask | Next entry: NCc1ccc(-c2ccc(CN)s2)s1
Reply | 13.2 µM

Ask | Follow-up entry: O=C(/C(=C(/Br)I)c1ccccc1)c1ccccc1
Reply | 27.5 µM

Ask | // same read-out, input: C=CCN1C(=O)CSC1=S
Reply | 13.5 µM

Ask | Okay, and N#CCN1CCCCCc2ccccc21 ?
Reply | > 200 µM

Ask | Now give it for C#CCNC(=O)N(CC#C)N=O too.
Reply | 166 µM

Ask | Could you do the same for COc1ccc(-c2cc(-c3ccccc3)[nH]c(=O)c2N(C)C)cc1 , please?
Reply | > 58.9 µM

* * *

Catalogue of molecules with associated EC50
system: CEM cells HIV-1 protection, formazan growth assay; experiment: NCI AIDS Antiviral Assay

These solved cases illustrate the format of a correct answer.
C#CC1(O)CCC2[C@@H]3CCc4cc(Oc5nc(F)nc(-c6c7ccccc7c(SCC)n6CCC)n5)ccc4C3CC[C@@]21C (stereo not given in full): > 6.17 µM
CC12C(=O)CC(CC1=O)C2(C)C: > 200 µM
Nc1cnn(C2OC(CO)C(F)C2F)c(=O)n1 (stereo not given): > 363 µM
O=C(Nc1ccc(Cl)cc1)/C(Cc1cccc[n+]1[O-])=N\Nc1ccc([N+](=O)[O-])cc1[N+](=O)[O-]: > 107 µM
O=C1NC(=O)C2C1C1C=C3c4ccccc4N(c4ccccc4)C32[C@H]2C(=O)NC(=O)[C@@H]12 (stereo not given in full): > 316 µM
Cn1cc(NC(=O)c2cc(N)nn2C)cc1C(=O)Nc1ccc2cc(S(=O)(=O)O)cc(S(=O)(=O)O)c2c1: > 200 µM
CNS(=O)(=O)NNS(=O)(=O)c1ccc2ccccc2c1: > 575 µM
NC(=S)N/N=C(\C(=O)Nc1cccc([N+](=O)[O-])c1)c1nc2ccc([N+](=O)[O-])cc2[nH]c1=O: > 288 µM

Ask | GET /values?readout=EC50&item= Cc1ccc(NC(=O)CC/C(CC(=O)C(C)(C)C)=N/NC(=O)C(N)=O)cc1C
Reply | > 324 µM

Ask | How about this molecule: COc1ccc(-c2c(C3=NCCCN3)nnn2-c2ccccc2)cc1
Reply | > 759 µM

* * *

tested on: CEM cells HIV-1 protection, formazan growth assay; experiment: NCI AIDS Antiviral Assay
RECORDED_METRIC: EC50

Examples with their reported EC50 follow.
CN1C=C(C(N)=O)Cc2ccsc21: > 1290 µM
CN(C)CCCn1c2c(c3ccccc31)CCCCCC2: > 200 µM
O=C(N/N=C/c1ccccn1)c1ccccc1[O-].O=C(N/N=C/c1ccccn1)c1ccccc1[O-].[Co+2]: > 200 µM
COC(=O)/C=C/c1ccc(OP(=O)(O)O)c(OC)c1: > 200 µM
CC(C)C1COC(c2cccc(C3=N[C@@H](C(C)C)CO3)n2)=N1 (stereo partly specified): > 24 µM

Ask | Please give the measured EC50 for this compound: C=CC1(C)CCC2=C(CCC3C(C)(C(=O)OC)CCCC23C)C1=O (stereo unspecified)
Reply | > 200 µM

Ask | Next compound up: Nc1ncnc2c1ncn2CC(=O)NCCCCO
Reply | > 200 µM

Ask | What do you have for CC(C(C(=O)O)S(=O)(=O)O)C(C(=O)O)S(=O)(=O)O (stereo unspecified) ?
Reply | > 100 µM

Ask | Try this compound next: O=C(Cc1ccccc1)NN1C(=O)C(Cl)C1c1ccccc1 (stereo unspecified)
Reply | > 31.6 µM

Ask | Subsequent entry: Cc1ccc(SSc2ccc(C)cc2[N+](=O)[O-])c([N+](=O)[O-])c1
Reply | > 200 µM

Ask | # iterate: CCOC(=O)/C(=C\c1ccc([N+](=O)[O-])cc1)[Se]c1ccccc1
Reply | > 69.2 µM

* * *

system: CEM cells HIV-1 protection, formazan growth assay; assay: NCI AIDS Antiviral Assay
Calls of active or inactive are those of the source.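 The calls were made as follows: active = compounds giving half or more protection of infected cells from virus-caused growth loss, again on retest; inactive = the rest.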
RECORDED_METRIC: outcome

C[n+]1c2ccccc2c(CNc2ccc(S(=O)(=O)N=C(N)N)cc2)c2ccccc21: inactive
O=C1C=C(O)C(=Cc2c(O)cc(O)cc2O)C(O)=C1: inactive
CN(C)C(c1ccccc1)C(O)c1ccccc1 (stereo not drawn): inactive
COc1ccc(Cc2nn(C3OC(COC(C)=O)C(OC(C)=O)C(OC(C)=O)C3OC(C)=O)c(=S)n(-c3ccc(OC)cc3)c2=O)cc1 (stereo not drawn): inactive
C[C@]12CC[C@H](OC(=O)/C=C\c3ccccc3N(CCCl)CCCl)CC1CC[C@@H]1C2CC[C@]2(C)NC(=O)CCC12 (stereo partly drawn): inactive

Ask | Which measured outcome belongs to OC1C(O)C2(C[C@H]1Br)OC(COCc1ccccc1)[C@@H](COCc1ccccc1)O2 (stereo partly drawn) , tested on CEM cells HIV-1 protection, formazan growth assay?
Reply | inactive

Ask | Then this molecule: CN(C)C(=Nc1nc(=[N+](C)C)ss1)N(C)C
Reply | inactive

Ask | Try this molecule too: CC1=C(C)C(=O)c2c(cc3ccccn23)C1=O
Reply | inactive

Ask | Also check CC1=C(C(=O)CC(=O)C(=O)Nc2ccccc2C(F)(F)F)Sc2ccccc2N1
Reply | inactive

* * *

system: CEM cells HIV-1 protection, formazan growth assay; experiment: NCI AIDS Antiviral Assay; details: measured here: growth of uninfected CEM cells
List of pIC50 values.
Quick note: pIC50 means taking -log10 of the concentration in moles per liter.

Example results:
CC1=C(C(=O)Nc2ccccc2)C(c2ccc(C3C(C(=O)Nc4ccccc4)=C(C)NC(C)=C3C(=O)Nc3ccccc3)cc2)C(C(=O)Nc2ccccc2)=C(C)N1: 5.62
O=C(O)c1ccc(CSc2ccc(Cl)cc2)c([N+](=O)[O-])c1: 4.02
BrC1=C(Br)C2(SCCS2)[C@H]2C[C@@H]1c1ccccc12: 5.06
CN1N=C(c2ccncc2)OC1c1cccc(F)c1 (stereo unspecified): 4.10
O=C1C(=O)c2ccccc2C(O)=C1Sc1ccccc1: 4.87
CC(=O)Oc1c(OC(C)=O)c(C=O)c2c(OC(C)=O)c(-c3c(C)cc4c(C(C)C)c(OC(C)=O)c(OC(C)=O)c(C=O)c4c3OC(C)=O)c(C)cc2c1C(C)C: 5.05
O=C1C=C(N2CC2)C(=O)C(N2CC2)=C1N1CC1: 7.49
CN(C)S(=O)(=O)c1cc(Cl)cc(Cc2cc(Cl)cc(S(=O)(=O)N(C)C)c2O)c1O: 5.36

Ask | Give the measured pIC50 of COc1ccc(Nc2ccc3ccccc3c2-c2c(O)ccc3ccccc23)cc1 .
Reply | 4.98

* * *

Here, each record is paired with measured pIC50 data.
tested on: CEM cells HIV-1 protection, formazan growth assay; assay: NCI AIDS Antiviral Assay; settings: measured here: growth of uninfected CEM cells
Remember, pIC50 is on a log scale: it is -log10 of the molar concentration.

Record excerpt, results attached:
CC1=C(C)[C@]2(C)C(C)[C@]13Cn1c(=O)n(-c4ccccc4)c(=O)n1[C@@]32C (some centres not stated): 4.29
CC(C(=O)O)c1ccc2c(c1)[nH]c1ccc(Cl)cc12 (configuration not stated): 3.85
NC(=O)CNC(=O)c1ccc(NC(=O)c2ccccc2SC(=O)CCCC[n+]2ccccc2)cc1: 4.30
COc1ccc(OC)c(-c2cn3c(n2)sc2ccccc23)c1: 4.30
COc1ccccc1NC(=S)N/N=C(/c1ccccc1)c1ccccn1: 7.09
CN(C)c1nc(Oc2nc(N(C)C)nc(N(C)C)n2)nc(N(C)C)n1: 4.76
O[Si](c1ccc(C(F)(F)F)cc1)(c1cccc(C(F)(F)F)c1)c1cccc(C(F)(F)F)c1: 4.98
Cc1nn(C)c2nc(=O)n(C)c(=O)c-2[n+]1[O-]: 4.57

Ask | Given C=CCc1cccc(/C(O)=C/C(=O)/C=C/c2ccccc2Cl)c1O , state its recorded pIC50.
Reply | 4.45

Ask | How about this compound: CSc1cc(-c2ccccn2)nc(-c2ccccn2)c1.CSc1cc(-c2ccccn2)nc(-c2ccccn2)c1.[O-][Cl+3]([O-])([O-])[O-].[Zn+2]
Reply | 7.20

Ask | Lookup N#CC1=C(N)OC(c2ccc([N+](=O)[O-])cc2)C1(C#N)C#N (configuration not stated)
Reply | 5.00

Ask | Continue with CC(C)/C(Cl)=N/OC(=O)Nc1ccc(Br)cc1
Reply | 5.43

Ask | Same read-out for COc1cc(C2c3cc4c(cc3OC(NNC(N)=O)C2C)OCO4)cc(OC)c1OC (configuration not stated) ?
Reply | 6.48
